Recorded values, source patent US20090155209A1.

Molecular target: NS3-NS4 (Hepatitis C virus genotype 1a, UniProt P27958)
Sequence (P27958 1027-1657): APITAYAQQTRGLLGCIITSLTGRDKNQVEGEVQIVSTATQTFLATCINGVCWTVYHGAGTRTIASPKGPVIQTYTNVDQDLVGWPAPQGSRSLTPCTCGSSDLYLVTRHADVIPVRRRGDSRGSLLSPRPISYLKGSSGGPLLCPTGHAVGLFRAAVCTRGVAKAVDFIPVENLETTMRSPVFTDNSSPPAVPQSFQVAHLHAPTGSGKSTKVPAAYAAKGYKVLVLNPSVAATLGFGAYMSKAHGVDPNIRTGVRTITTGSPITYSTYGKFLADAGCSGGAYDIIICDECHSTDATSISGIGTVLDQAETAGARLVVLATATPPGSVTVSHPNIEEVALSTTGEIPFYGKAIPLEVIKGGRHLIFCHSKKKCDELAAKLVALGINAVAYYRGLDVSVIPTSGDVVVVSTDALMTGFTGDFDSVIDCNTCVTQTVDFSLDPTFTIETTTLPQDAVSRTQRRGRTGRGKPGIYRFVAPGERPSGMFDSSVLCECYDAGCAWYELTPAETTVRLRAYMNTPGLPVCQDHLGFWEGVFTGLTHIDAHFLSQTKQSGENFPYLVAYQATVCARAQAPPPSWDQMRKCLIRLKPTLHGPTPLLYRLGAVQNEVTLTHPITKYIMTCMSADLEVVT
Sequence (P27958 1658-1711): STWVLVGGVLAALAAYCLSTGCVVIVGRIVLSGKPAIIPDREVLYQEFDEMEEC
Assay: cell-based
Details: EC50, NS3-NS4 activity
pEC50: −log10 of the molar value.
PARAMETER: pEC50

Known results for compounds:
CC(C)(C)ONC(=O)[C@@]12C[C@H]1/C=C\CCCCC[C@H](NC(=O)OC(C)(C)C)C(=O)N1C[C@H](OC(=O)N3Cc4cccc(F)c4C3)C[C@H]1C(=O)N2
> 7.00
CC(C)(C)OC(=O)N[C@H]1CCCCC/C=C\[C@@H]2C[C@@]2(C(=O)NOc2cccc(C(F)(F)F)c2)NC(=O)[C@@H]2C[C@@H](OC(=O)N3Cc4cccc(F)c4C3)CN2C1=O
5.00 to 6.00
CC(C)(C)OC(=O)N[C@H]1CCCCC/C=C\[C@@H]2C[C@@]2(C(=O)NS(=O)(=O)c2cc(Cl)sc2Cl)NC(=O)[C@@H]2C[C@@H](OC(=O)N3Cc4ccccc4C3)CN2C1=O
> 7.00

Give the reported pEC50 for this compound. O=C(N[C@H]1CCCCC/C=C\[C@@H]2C[C@@]2(C(=O)NS(=O)(=O)c2ccc(Cl)cc2)NC(=O)[C@@H]2C[C@@H](OC(=O)N3Cc4cccc(Cl)c4C3)CN2C1=O)OC1CCOCC1 6.00 to 7.00

Write down pEC50 measured for item CC(C)(C)OC(=O)N[C@H]1CCCCC/C=C\[C@@H]2C[C@@]2(C(=O)NS(=O)(=O)c2cc(F)cc(F)c2)NC(=O)[C@@H]2C[C@@H](OC(=O)N3Cc4cccc(F)c4C3)CN2C1=O > 7.00

Quote pEC50 reported for COc1cc(CS(=O)(=O)NC(=O)[C@@]23C[C@H]2CCCCCCC[C@H](NC(=O)OC(C)(C)C)C(=O)N2C[C@H](OC(=O)N4Cc5cccc(F)c5C4)C[C@H]2C(=O)N3)cc(OC)c1 please. 6.00 to 7.00

Fill in reported pEC50 for this entry: CC(C)(C)OC(=O)N[C@H]1CCCCC/C=C\[C@@H]2C[C@@]2(C(=O)NS(=O)(=O)c2ccccc2)NC(=O)[C@@H]2C[C@@H](OC(=O)N3Cc4cccc(F)c4C3)CN2C1=O > 7.00

Retrieve pEC50 measured for Cc1cc(C)cc(ONC(=O)[C@@]23C[C@H]2CCCCCCC[C@H](NC(=O)OC(C)(C)C)C(=O)N2C[C@H](OC(=O)N4Cc5cccc(F)c5C4)C[C@H]2C(=O)N3)c1 and print it. 5.00 to 6.00

Note pEC50 for the compound shown: CCC(C)(C)OC(=O)N[C@H]1CCCCC/C=C\[C@@H]2C[C@@]2(C(=O)NS(=O)(=O)c2ccccc2C)NC(=O)[C@@H]2C[C@@H](OC(=O)N3Cc4cccc(F)c4C3)CN2C1=O > 7.00

Give recorded pEC50. CC(C)COC(=O)N[C@H]1CCCCC/C=C\[C@@H]2C[C@@]2(C(=O)NS(=O)(=O)c2ccc(Cl)cc2)NC(=O)[C@@H]2C[C@@H](OC(=O)N3Cc4cccc(F)c4C3)CN2C1=O > 7.00

Give pEC50 for O=C1N[C@]2(C(=O)NS(=O)(=O)C3CC3)C[C@H]2/C=C\CCCCC[C@H](Nc2ccc(F)cc2)C(=O)N2C[C@H](OC(=O)N3Cc4cccc(F)c4C3)C[C@@H]12 > 7.00

Look up and report measured pEC50 for this entry: CN(C(=O)N[C@H]1CCCCC/C=C\[C@@H]2C[C@@]2(C(=O)NS(=O)(=O)c2ccccc2)NC(=O)[C@@H]2C[C@@H](OC(=O)N3Cc4cccc(F)c4C3)CN2C1=O)C(C)(C)C > 7.00

Identify measured pEC50 associated with O=C(N[C@H]1CCCCC/C=C\[C@@H]2C[C@@]2(C(=O)NS(=O)(=O)C2CC2)NC(=O)[C@@H]2C[C@@H](OC(=O)N3Cc4cccc(Cl)c4C3)CN2C1=O)OC1CCC1 > 7.00

Let me know recorded pEC50 for CN(Cc1ccccc1)C(=O)N[C@H]1CCCCC/C=C\[C@@H]2C[C@@]2(C(=O)NS(=O)(=O)C2CC2)NC(=O)[C@@H]2C[C@@H](OC(=O)N3Cc4cccc(F)c4C3)CN2C1=O , thanks. > 7.00

Write down pEC50 measured for item CC(C)(C)OC(=O)N[C@H]1CCCCC/C=C\[C@@H]2C[C@@]2(C(=O)NS(=O)(=O)c2c(F)cccc2F)NC(=O)[C@@H]2C[C@@H](OC(=O)N3CCc4ccccc4C3)CN2C1=O 5.00 to 6.00

Tell me its pEC50 given CC(C)(C)OC(=O)N[C@H]1CCCCCCC[C@@H]2C[C@@]2(C(=O)NS(=O)(=O)c2ccccc2C(F)(F)F)NC(=O)[C@@H]2C[C@@H](OC(=O)N3Cc4cccc(F)c4C3)CN2C1=O as the entry. > 7.00

Hello, please tell me recorded pEC50 for this one: O=C1N[C@]2(C(=O)NS(=O)(=O)C3CC3)C[C@H]2/C=C\CCCCC[C@H](Nc2nc(-c3ccc(OC(F)(F)F)cc3)cs2)C(=O)N2C[C@H](OC(=O)N3Cc4cccc(F)c4C3)C[C@@H]12 > 7.00

Specify reported pEC50 for the compound shown: CC(C)(C)OC(=O)N[C@H]1CCCCC/C=C\[C@@H]2C[C@@]2(C(=O)NS(=O)(=O)c2cc(Cl)cs2)NC(=O)[C@@H]2C[C@@H](OC(=O)N3Cc4cccc(F)c4C3)CN2C1=O > 7.00

Return the recorded pEC50 value; entry: CC(C)(OC(=O)N[C@H]1CCCCC/C=C\[C@@H]2C[C@@]2(C(=O)NS(=O)(=O)C2CC2)NC(=O)[C@@H]2C[C@@H](OC(=O)N3Cc4cccc(F)c4C3)CN2C1=O)C1CC1 > 7.00

---

Test: Single ascending dose study, fasted and fed: safety and non-compartmental plasma PK
Format: in vivo, healthy volunteers (human)
Details: human, plasma, oral, 800 mg, median; single 800 mg dose, fasting state; plasma; N=8; read-out: AUC0-inf
PARAMETER: AUC0-inf (ng·h/mL)
Report only the number, with the unit ng·h/mL understood.

Give a short answer stating reported AUC0-inf for CC(C)(C)OC(=O)N[C@H]1CCCCC/C=C\[C@@H]2C[C@@]2(C(=O)NS(=O)(=O)C2CC2)NC(=O)[C@@H]2C[C@@H](OC(=O)N3Cc4cccc(F)c4C3)CN2C1=O [ITMN-191] . 194

---

Test: Single ascending dose study, fasted and fed: safety and non-compartmental plasma PK
Format: in vivo, healthy volunteers (human)
Details: human, plasma, oral, 1600 mg, individual subjects; single 1600 mg dose, Fed; read-out: t½ (converted)
PARAMETER: half-life (h)
Please reply with the bare figure in h and do not write the unit itself.

Given the compound CC(C)(C)OC(=O)N[C@H]1CCCCC/C=C\[C@@H]2C[C@@]2(C(=O)NS(=O)(=O)C2CC2)NC(=O)[C@@H]2C[C@@H](OC(=O)N3Cc4cccc(F)c4C3)CN2C1=O , write its reported half-life. 3

---

Target: UniProt:P27958
Experiment: cell-based
Settings: EC50, NS3-NS4 activity
Catalogue of EC50 readings, one per entry.

O=C(N[C@H]1CCCCC/C=C\[C@@H]2C[C@@]2(C(=O)NS(=O)(=O)C2CC2)NC(=O)[C@@H]2C[C@@H](OC(=O)N3Cc4cccc(F)c4C3)CN2C1=O)OCC1CC1 [Compound 434]
< 100 nM
CN(C(=O)N[C@H]1CCCCC/C=C\[C@@H]2C[C@@]2(C(=O)NS(=O)(=O)c2c(F)cccc2F)NC(=O)[C@@H]2C[C@@H](OC(=O)N3Cc4cccc(F)c4C3)CN2C1=O)C(C)(C)C [Compound 362]
100 to 1000 nM
CC(C)(C)OC(=O)N[C@H]1CCCCCCC[C@@H]2C[C@@]2(C(=O)NS(=O)(=O)c2ccccc2)NC(=O)[C@@H]2C[C@@H](OC(=O)N3Cc4cccc(F)c4C3)CN2C1=O [Compound 601]
< 100 nM

Supply reported EC50 belonging to this molecule: Cc1ccc(S(=O)(=O)NC(=O)[C@@]23C[C@H]2/C=C\CCCCC[C@H](NC(=O)OC(C)(C)C)C(=O)N2C[C@H](OC(=O)N4Cc5cccc(F)c5C4)C[C@H]2C(=O)N3)cc1F [Compound 301] < 100 nM

Give reported EC50 value for Cc1csc(S(=O)(=O)NC(=O)[C@@]23C[C@H]2/C=C\CCCCC[C@H](NC(=O)OC(C)(C)C)C(=O)N2C[C@H](OC(=O)N4Cc5cccc(F)c5C4)C[C@H]2C(=O)N3)c1 [Compound 539] < 100 nM

Look up and report measured EC50 for this entry: CC(C)CC1(S(=O)(=O)NC(=O)[C@@]23C[C@H]2CCCCCCC[C@H](NC(=O)OC(C)(C)C)C(=O)N2C[C@H](OC(=O)N4Cc5cccc(F)c5C4)C[C@H]2C(=O)N3)CC1 [Compound 654] < 100 nM

Provide only the value of recorded EC50 for CN(C(=O)N[C@H]1CCCCC/C=C\[C@@H]2C[C@@]2(C(=O)NS(=O)(=O)C2(C)CC2)NC(=O)[C@@H]2C[C@@H](OC(=O)N3Cc4cccc(F)c4C3)CN2C1=O)C(C)(C)C [Compound 440] < 100 nM

Fill in reported EC50 for this entry: CC(=O)O[C@@H]1C[C@H]2C(=O)N[C@]3(C(=O)NS(=O)(=O)C4CC4)C[C@H]3/C=C\CCCCC[C@H](Nc3nc(-c4ccccc4)c(-c4ccccc4)s3)C(=O)N2C1 [Compound 235] 100 to 1000 nM

Recall and state the measured EC50 for Cc1cc(F)ccc1S(=O)(=O)NC(=O)[C@@]12C[C@H]1/C=C\CCCCC[C@H](NC(=O)OC(C)(C)C)C(=O)N1C[C@H](OC(=O)N3Cc4cccc(F)c4C3)C[C@H]1C(=O)N2 [Compound 346] . < 100 nM

Tell me measured EC50 for CC(C)(C)OC(=O)N[C@H]1CCCCC/C=C\[C@@H]2C[C@@]2(C(=O)NS(=O)(=O)Cc2cccc(C(F)(F)F)c2)NC(=O)[C@@H]2C[C@@H](OC(=O)N3Cc4cccc(F)c4C3)CN2C1=O [Compound 518] please. 100 to 1000 nM

Please report the measured EC50 for CN(C(=O)N[C@H]1CCCCC/C=C\[C@@H]2C[C@@]2(C(=O)NS(=O)(=O)c2ccc(Cl)cc2)NC(=O)[C@@H]2C[C@@H](OC(=O)N3Cc4cccc(F)c4C3)CN2C1=O)C(C)(C)C [Compound 361] < 100 nM
